Attribution: patent US20170107257A1

- target-or-test-system: hAPJ (Homo sapiens)
- Sequence (P35414 1-380): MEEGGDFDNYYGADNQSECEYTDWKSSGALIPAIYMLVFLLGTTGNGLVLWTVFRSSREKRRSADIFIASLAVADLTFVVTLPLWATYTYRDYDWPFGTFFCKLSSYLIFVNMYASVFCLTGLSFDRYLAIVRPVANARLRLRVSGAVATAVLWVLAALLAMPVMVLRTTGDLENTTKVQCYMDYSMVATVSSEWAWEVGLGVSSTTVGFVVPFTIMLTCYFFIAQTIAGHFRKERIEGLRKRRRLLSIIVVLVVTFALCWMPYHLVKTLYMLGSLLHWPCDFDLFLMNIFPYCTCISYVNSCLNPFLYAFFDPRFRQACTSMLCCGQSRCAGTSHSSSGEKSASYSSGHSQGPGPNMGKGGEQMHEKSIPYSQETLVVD
- test-description: beta arrestin assay (DiscoverX)
- Assay type: cell-based
- condition-notes: ratio of β-arrestin EC50 to cAMP EC50
Numbered stars: 1 amine (or outer) side, 2 acyl side, 3 side chain; on linkers, the order of the positions; unused ones are H or OH. Bridge positions count the residues as written; N and C are the ends. Square brackets hold non-standard residues; d marks the D form. Peptide text beside a SMILES is read from it. ξ: configuration not given here. ξAbu(3ξ-yl) = CC(C(N[*:1])C(=O)[*:2])[*:3]; pGlu = O=C1CC[C@@H](C(=O)O)N1; ξC = NC(CS)C(=O)O
quantity-name: Ratio β-arrestin/cAMP
Answers are plain numbers.

## Input Give the value of Ratio β-arrestin/cAMP reported for the following: CSCC[C@H](NC(=O)[C@@H]1CCCN1C(=O)C1CSC(C)C(NC(=O)[C@H](CC(C)C)NC(=O)[C@H](CCCNC(=N)N)NC(=O)[C@@H]2CCCN2C(=O)[C@H](CCCNC(=N)N)NC(=O)[C@@H]2CCC(=O)N2)C(=O)N[C@@H](Cc2c[nH]cn2)C(=O)N[C@@H](CCCCN)C(=O)N1)C(=O)N1CCC[C@H]1C(=O)N[C@@H](Cc1ccccc1)C(=O)O (some centres unmarked) [pEApeM5, pERPRLmelanHKmelanPMPF] ([pGlu]RPRL[ξAbu(3ξ-yl)]HK[ξC]PMPF-OH; thioether 6-9; C-terminus assumed)
## Output 9

Shift focus to the following entry.
## Input Give the value of Ratio β-arrestin/cAMP reported for the following: CSCC[C@@H]1NC(=O)[C@@H]2CCCN2C(=O)CNC(=O)[C@H](CCCCN)NC(=O)[C@H](Cc2c[nH]cn2)NC(=O)C(NC(=O)[C@H](CC(C)C)NC(=O)[C@H](CCCNC(=N)N)NC(=O)[C@@H]2CCCN2C(=O)[C@H](CCCNC(=N)N)NC(=O)[C@@H]2CCC(=O)N2)CSCC(C(=O)N2CCC[C@H]2C(=O)N[C@@H](Cc2ccccc2)C(=O)O)NC1=O (single isomer, unassigned) [pEApeM27S I, pERPRLLanHKGPMLanPF]
## Output 50
